System: Wnt ligand-induced signaling
method: Wnt-responsive Super-TOpFlash (STF) luciferase reporter gene assay in HEK293 cells
Format: cell-based
experimental.parameters: Homo sapiens, Wnt3A condition medium induced
measurement.name: IC50 (nM)
Quick reminder: number only, in nM, skip the unit.

So, COc1ccc(C(=O)C2CCN(C3CCN(Cc4ccc(Cl)c(C#N)c4)C3=O)CC2)cc1 (stereo not shown) [Example 5] ? Its IC50 was 17

So, O=C(c1ccc(F)cc1)C1CCN([C@H]2CCN(Cc3nc4c(c(=O)[nH]3)COCC4)C2=O)CC1 [Example 11] ? Its IC50 was 5

So, COc1ccc(C(=O)C2CCN([C@@H]3CCN(Cc4nc5c(c(=O)[nH]4)COCC5)C3=O)CC2)cc1C [Example 14] ? Its IC50 was 31

So, O=C(c1ccc(F)cc1)C1CCN(C2CCN(Cc3nc4c(c(=O)[nH]3)COCC4)C2=O)CC1 (stereo not shown) [Example 10] ? Its IC50 was 10

So, COc1ccc(C(=O)C2CCN([C@H]3CCN(Cc4nc5ccccc(=O)c5[nH]4)C3=O)CC2)cc1C [Example 28] ? Its IC50 was 1.5

So, COc1ccc(C(=O)C2CCN(C3CCN(Cc4ncc(C)c(=O)[nH]4)C3=O)CC2)cc1 (stereo not shown) [Example 25] ? Its IC50 was 3.4

So, COc1ccc(C(=O)C2CCN([C@H]3CCN(Cc4nc5c(c(=O)[nH]4)COCC5)C3=O)CC2)cc1 [Example 3] ? Its IC50 was 1.1

---

System: Wnt ligand-induced signaling
method: Wnt-responsive Super-TOpFlash (STF) luciferase reporter gene assay in HEK293 cells
Format: cell-based
experimental.parameters: Homo sapiens, Wnt3A condition medium induced
Record form. Attribute: IC50. Fill in for each entry.
Quick reminder: number only, in nM, skip the unit.

Let me check: COc1ccc(C(=O)C2CCN(C3CCN(Cc4nc5c(cnn5C)c(=O)[nH]4)C3=O)CC2)cc1 (stereo not shown) , system Wnt ligand-induced signaling, measured IC50 is 5.9

Let me check: CCc1cc(=O)[nH]c(CN2CCC(N3CCC(C(=O)c4ccc(OC)cc4)CC3)C2=O)n1 (stereo not shown) , system Wnt ligand-induced signaling, measured IC50 is 10.4

Let me check: COc1ccc(C(=O)C2CCN(C3CCN(Cc4nc(C)cc(=O)[nH]4)C3=O)CC2)cc1 (stereo not shown) , system Wnt ligand-induced signaling, measured IC50 is 56

Let me check: COc1ccc(C(=O)C2CCN(C3CCN(CC(=O)Nc4noc5ncccc45)C3=O)CC2)cc1 (stereo not shown) , system Wnt ligand-induced signaling, measured IC50 is 2030

---

Record form. Attribute: IC50. Fill in for each entry.
Quick reminder: number only, in µM, skip the unit.

Let me check: COc1ccc(C(=O)C2CCN(C3CCN(Cc4nc5c(c(=O)[nH]4)COCC5)C3=O)CC2)cc1 (centres unmarked) , system UniProt:O88554, measured IC50 is 5.4

Let me check: O=C(c1ccc(F)cc1)C1CCN(C2CCN(Cc3nc4c(c(=O)[nH]3)COCC4)C2=O)CC1 (centres unmarked) , system UniProt:O88554, measured IC50 is 9.2

Let me check: COc1ccc(C(=O)C2CCN([C@@H]3CCN(CC(=O)Nc4nnc5n4CCS5)C3=O)CC2)cc1 (single isomer, unassigned) , system UniProt:O88554, measured IC50 is 6.3

Let me check: O=C(c1ccc(Cl)cc1)C1CCN(C2CCN(Cc3nc4c(c(=O)[nH]3)COCC4)C2=O)CC1 (centres unmarked) , system UniProt:O88554, measured IC50 is 4.62

Let me check: COc1ccc(C(=O)C2CCN(C3CCN(Cc4nc5c(c(=O)[nH]4)CCC5)C3=O)CC2)cc1 (centres unmarked) , system UniProt:O88554, measured IC50 is 10.7

---

Test system: Axin2 protein
method: Cellular ELISA assay for stabilizing the Axin2 protein in SW480 cells
Format: cell-based
experimental.parameters: Homo sapiens, 24 hrs treatment, read-out: Axin AC50
Record form. Attribute: AC50. Fill in for each entry.
Quick reminder: number only, in nM, skip the unit.

So, COc1ccc(C(=O)C2CCN([C@H]3CCN(Cc4nc5c(c(=O)[nH]4)COCC5)C3=O)CC2)cc1 ? Its AC50 was 6.3

So, O=C(c1ccc(Cl)cc1)C1CCN(C2CCN(Cc3nc4c(c(=O)[nH]3)COCC4)C2=O)CC1 (stereo not shown) ? Its AC50 was 52

So, COc1ccc(C(=O)C2CCN(C3CCCN(Cc4nc5c(c(=O)[nH]4)COCC5)C3=O)CC2)cc1 (stereo not shown) ? Its AC50 was 51

So, COc1ccc(C(=O)C2CCN(C3CCN(CC(=O)Nc4nnc5n4CCS5)C3=O)CC2)cc1 (stereo not shown) ? Its AC50 was 131

---

Record form. Attribute: pIC50. Fill in for each entry.
System: Wnt ligand-induced signaling
method: Wnt-responsive Super-TOpFlash (STF) luciferase reporter gene assay in HEK293 cells
Assay type: cell-based
experimental.parameters: Homo sapiens, Wnt3A condition medium induced
In simple prose, pIC50 is minus the logarithm base ten of a concentration in moles per litre.

Let me check: COc1ccc(C(=O)C2CCN(C3CCN(Cc4nccc(=O)[nH]4)C3=O)CC2)cc1 (centres unmarked) , system Wnt ligand-induced signaling, measured pIC50 is 6.41

Let me check: COc1ccc(C(=O)C2CCN([C@@H]3CCN(Cc4nc5ccccc(=O)c5[nH]4)C3=O)CC2)cc1 , system Wnt ligand-induced signaling, measured pIC50 is 7.19

Let me check: COc1ccc(C(=O)C2CCN(C3CCN(Cc4nc5c(c(=O)[nH]4)CCC5)C3=O)CC2)cc1 (centres unmarked) , system Wnt ligand-induced signaling, measured pIC50 is 8.96

Let me check: O=C(c1ccc(Cl)cc1)C1CCN(C2CCN(Cc3nc4c(c(=O)[nH]3)COCC4)C2=O)CC1 (centres unmarked) , system Wnt ligand-induced signaling, measured pIC50 is 8.52

Let me check: COc1ccc(C(=O)C2CCN(C3CCN(CC(=O)Nc4nnc5ccccn45)C3=O)CC2)cc1 (centres unmarked) , system Wnt ligand-induced signaling, measured pIC50 is 6.03

Let me check: COc1ccc(C(=O)C2CCN(C3CCN(CC(=O)Nc4nncc5c4CCCO5)C3=O)CC2)cc1 (centres unmarked) , system Wnt ligand-induced signaling, measured pIC50 is 6.40

Let me check: COc1ccc(C(=O)C2CCN(C3CCN(Cc4nc5ccsc5c(=O)[nH]4)C3=O)CC2)cc1 (centres unmarked) , system Wnt ligand-induced signaling, measured pIC50 is 7.27

Let me check: COc1ccc(C(=O)C2CCN(C3CCN(Cc4cccc(Cl)c4C#N)C3=O)CC2)cc1 (centres unmarked) , system Wnt ligand-induced signaling, measured pIC50 is 7.00

---

Tested on: Wnt ligand-induced signaling
method: Wnt-responsive Super-TOpFlash (STF) luciferase reporter gene assay in HEK293 cells
Assay type: cell-based
experimental.parameters: Homo sapiens, Wnt3A condition medium induced
measurement.name: pIC50
In simple prose, pIC50 is minus the logarithm base ten of a concentration in moles per litre.

Let me check: COc1ccc(C(=O)C2CCN([C@H]3CCN(Cc4nc5ccccc(=O)c5[nH]4)C3=O)CC2)cc1 , system Wnt ligand-induced signaling, measured pIC50 is 8.96

Let me check: COc1ccc(C(=O)C2CCN(C3CCN(Cc4nc5sc(C)cc5c(=O)[nH]4)C3=O)CC2)cc1 (centres unmarked) , system Wnt ligand-induced signaling, measured pIC50 is 7.74

Let me check: COc1ccc(C(=O)C2CCN(C3CCN(Cc4nc(C)c(C)c(=O)[nH]4)C3=O)CC2)cc1 (centres unmarked) , system Wnt ligand-induced signaling, measured pIC50 is 8.39

Let me check: COc1ccc(C(=O)C2CCN(C3CCN(Cc4nc5c(c(=O)[nH]4)COCC5)C3=O)CC2)cc1 (centres unmarked) , system Wnt ligand-induced signaling, measured pIC50 is 8.89

Let me check: COc1ccc(C(=O)C2CCN(C3CCN(CC(=O)Nc4nnnn4C)C3=O)CC2)cc1 (centres unmarked) , system Wnt ligand-induced signaling, measured pIC50 is 5.12

Let me check: COc1ccc(C(=O)C2CCN([C@@H]3CCN(Cc4nc5c(c(=O)[nH]4)COCC5)C3=O)CC2)cc1 , system Wnt ligand-induced signaling, measured pIC50 is 7.02

Let me check: COc1ccc(C(=O)C2CCN([C@@H]3CCN(Cc4nc5ccccc(=O)c5[nH]4)C3=O)CC2)cc1C , system Wnt ligand-induced signaling, measured pIC50 is 7.85

Let me check: O=C(c1ccc(F)cc1)C1CCN([C@@H]2CCN(Cc3nc4c(c(=O)[nH]3)COCC4)C2=O)CC1 , system Wnt ligand-induced signaling, measured pIC50 is 6.21
